# System Name: PD-1/PD-L1 interaction (PD-1-Ig / PD-L1-His) (Homo sapiens, UniProt Q9NZQ7)
# Construct: hPDL1(18-239)-TVMV-His; TVMV protease site linker (C); made in house; host or cells: HEK293T
# Sequence (Q9NZQ7 with tags, fused parts or gaps): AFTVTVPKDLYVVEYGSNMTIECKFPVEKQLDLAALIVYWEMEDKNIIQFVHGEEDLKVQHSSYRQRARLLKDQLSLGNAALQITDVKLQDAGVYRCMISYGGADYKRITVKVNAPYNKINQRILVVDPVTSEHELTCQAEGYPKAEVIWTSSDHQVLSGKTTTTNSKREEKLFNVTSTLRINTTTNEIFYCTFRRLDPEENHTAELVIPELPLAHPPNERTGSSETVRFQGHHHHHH
# Assay Text: PD-1/PD-L1 Homogenous Time-Resolved Fluorescence (HTRF) binding assay
# Condition Details: IC50 range class; PD-L1-His 10 nM, PD-1-Ig 20 nM; read-out: Range or IC50
pIC50: −log10 of the molar value.
Readout Name: pIC50

Would you please look over these solved cases?
1. Cc1c(OCCCNCc2ccncc2)cccc1-c1cccc(OCCCN2CC[C@@H](O)C2)c1C; 6.00 to 7.05
2. Cc1c(OCCCNCCN(C)C)cccc1-c1cccc(OCCCN2CC[C@@H](O)C2)c1C; 6.00 to 7.05
3. Cc1c(COc2cc(OCc3cncc(C#N)c3)c(CO)cc2Cl)cccc1-c1cccc(COc2cc(OCc3cncc(C#N)c3)c(CN3CCCC[C@H]3C(=O)O)cc2Cl)c1C; 7.70 to 10.40
4. COC(=O)[C@H](NCc1cc(Cl)c(OCc2cccc(-c3cccc(COc4cc(OCc5cncc(C#N)c5)c(CN[C@H](C(=O)O)C(=O)OC)cc4Cl)c3C)c2C)cc1OCc1cncc(C#N)c1)C(=O)O; 5.00 to 6.00
5. Cc1c(OCCCNCC(O)CO)cccc1-c1cccc(OCCCNCC(O)CO)c1C (mixture of isomers); 7.70 to 10.40

The record that follows has no pIC50 shown yet.
Give pIC50 for Cc1c(OCCCNC[C@H](O)C(=O)O)cccc1-c1cccc(OCCCN2CC[C@@H](O)C2)c1C 6.00 to 7.05

Data origin, for the record: patent US10144706B2
